Data provenance: patent US7282507B2

target: androgen receptor (rat ventral prostate cytosol) (Rattus norvegicus); construct: from tissue; host or cells: ventral prostate cytosol of castrated male Sprague Dawley or Wistar rats; assay: Androgen Receptor Binding Using Rat Ventral Prostate Cytosol; conditions: Concentration 1000 nM; read-out: % Inhibition, Androgen Receptor Binding (Rat Cytosol)

>  <compound>
CC(O)(COC(=O)c1c(Cl)cccc1Cl)c1cc2cc([N+](=O)[O-])c(C(F)(F)F)cc2[nH]1 (stereo not shown) [Compound 52]

>  <subjectOfTest>
androgen receptor (rat ventral prostate cytosol) (Rattus norvegicus)

>  <inhibition at 1 µM [%]>
94.5

$$$$
>  <compound>
CC(O)(CSC1CCCCC1)c1cc2cc(C#N)c(C(F)(F)F)cc2[nH]1 (stereo not shown) [Compound 92]

>  <subjectOfTest>
androgen receptor (rat ventral prostate cytosol) (Rattus norvegicus)

>  <inhibition at 1 µM [%]>
14.7

$$$$
>  <compound>
COc1ccc(C(=O)OCC(C)(O)c2cc3cc([N+](=O)[O-])c(C(F)(F)F)cc3[nH]2)cc1 (stereo not shown) [Compound 65]

>  <subjectOfTest>
androgen receptor (rat ventral prostate cytosol) (Rattus norvegicus)

>  <inhibition at 1 µM [%]>
47.5

$$$$
>  <compound>
O=C(OCc1ccccc1)N1CCC(O)(c2cc3cc(Cl)c(C(F)(F)F)cc3[nH]2)CC1 [Compound 20]

>  <subjectOfTest>
androgen receptor (rat ventral prostate cytosol) (Rattus norvegicus)

>  <inhibition at 1 µM [%]>
-28.5

$$$$

###

Target: androgen receptor (rat ventral prostate cytosol) (Rattus norvegicus)
Construct: from tissue; host or cells: ventral prostate cytosol of castrated male Sprague Dawley or Wistar rats
Sequence (P15207 1-902): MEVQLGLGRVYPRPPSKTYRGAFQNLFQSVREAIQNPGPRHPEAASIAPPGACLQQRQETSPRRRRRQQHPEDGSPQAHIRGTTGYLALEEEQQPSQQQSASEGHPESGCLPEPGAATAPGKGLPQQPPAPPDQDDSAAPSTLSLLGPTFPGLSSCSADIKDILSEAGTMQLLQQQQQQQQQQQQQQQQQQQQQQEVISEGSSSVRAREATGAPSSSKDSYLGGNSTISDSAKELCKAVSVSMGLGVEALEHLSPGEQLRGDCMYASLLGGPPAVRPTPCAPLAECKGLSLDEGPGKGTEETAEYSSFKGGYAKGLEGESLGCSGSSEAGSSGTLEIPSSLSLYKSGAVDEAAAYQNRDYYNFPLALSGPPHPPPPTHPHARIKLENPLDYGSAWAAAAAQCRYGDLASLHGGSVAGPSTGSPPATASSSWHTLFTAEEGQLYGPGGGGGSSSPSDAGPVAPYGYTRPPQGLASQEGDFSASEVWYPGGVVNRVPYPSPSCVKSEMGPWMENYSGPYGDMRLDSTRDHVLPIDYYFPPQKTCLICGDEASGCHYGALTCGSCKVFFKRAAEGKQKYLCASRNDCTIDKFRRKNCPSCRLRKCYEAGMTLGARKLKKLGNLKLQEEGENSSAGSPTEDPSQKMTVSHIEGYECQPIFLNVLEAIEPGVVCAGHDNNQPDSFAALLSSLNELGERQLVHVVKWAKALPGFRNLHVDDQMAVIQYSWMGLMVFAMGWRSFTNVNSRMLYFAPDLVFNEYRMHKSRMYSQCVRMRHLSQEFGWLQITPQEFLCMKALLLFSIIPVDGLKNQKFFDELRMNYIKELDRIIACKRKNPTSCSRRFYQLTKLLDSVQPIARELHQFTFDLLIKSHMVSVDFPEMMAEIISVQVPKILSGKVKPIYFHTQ
Assay: Androgen Receptor Binding Using Rat Ventral Prostate Cytosol
Settings: Concentration 1000 nM; read-out: % Inhibition, Androgen Receptor Binding (Rat Cytosol)
Criterion: inhibition at 1 µM meeting or surpassing 20%. Met: True. Not met: False.

>  <compound>
COC(=O)c1ccc2[nH]c(C(C)(O)CSC3CCCCC3)cc2c1 (centres unmarked) [Compound 94]

>  <labelValue>
True

$$$$
>  <compound>
CC(O)(CSc1ccc(N)cc1)c1cc2cc(Cl)c(C(F)(F)F)cc2[nH]1 (centres unmarked) [Compound 104]

>  <labelValue>
True

$$$$
>  <compound>
CC(O)(CSc1ccc(F)cc1)c1cc2ccccc2[nH]1 (centres unmarked) [Compound 108]

>  <labelValue>
False

$$$$
>  <compound>
CC(O)(CSc1ccc(Cl)cc1)c1cc2cc(Cl)ccc2n1S(C)(=O)=O (centres unmarked) [Compound 101]

>  <labelValue>
False

$$$$
>  <compound>
CN(C)c1ccc(C(=O)OCC(C)(O)c2cc3cc([N+](=O)[O-])c(C(F)(F)F)cc3[nH]2)cc1 (centres unmarked) [Compound 67]

>  <labelValue>
True

$$$$
>  <compound>
CC(O)(CSc1ccc(Cl)cc1)c1cc2cc(Cl)c(C(F)(F)F)cc2[nH]1 (centres unmarked) [Compound 82]

>  <labelValue>
True

$$$$
>  <compound>
CC(O)(COC(=O)c1ccc(Cl)c(Cl)c1)c1cc2cc(C#N)c(C(F)(F)F)cc2[nH]1 (centres unmarked) [Compound 78]

>  <labelValue>
False

$$$$
>  <compound>
CC(O)(COC(=O)c1ccc(F)cc1)c1cc2cc(C#N)c(C(F)(F)F)cc2[nH]1 (centres unmarked) [Compound 77]

>  <labelValue>
False

$$$$
